system: AKT1 (human) (UniProt P31749)
Sequence (P31749 whole entry, looked up): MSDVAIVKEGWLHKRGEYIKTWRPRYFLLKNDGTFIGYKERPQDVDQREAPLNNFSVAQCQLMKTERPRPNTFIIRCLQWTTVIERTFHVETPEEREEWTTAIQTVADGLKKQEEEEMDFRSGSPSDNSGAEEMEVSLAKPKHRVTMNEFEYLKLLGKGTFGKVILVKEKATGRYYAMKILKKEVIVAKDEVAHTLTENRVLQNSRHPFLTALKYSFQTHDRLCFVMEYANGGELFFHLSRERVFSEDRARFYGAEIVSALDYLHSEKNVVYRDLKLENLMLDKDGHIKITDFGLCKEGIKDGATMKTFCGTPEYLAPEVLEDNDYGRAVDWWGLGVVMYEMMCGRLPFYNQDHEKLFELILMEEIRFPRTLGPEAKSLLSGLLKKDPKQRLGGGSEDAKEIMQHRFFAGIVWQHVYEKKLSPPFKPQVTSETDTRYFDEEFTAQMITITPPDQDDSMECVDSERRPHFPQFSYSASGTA
assay_protocol: radiometric filter-binding kinase assay, Kinase HotSpot
condition_description: compound 0.5 µM; ATP 10 µM
quantity_name: residual activity (%)
A number alone suffices; assume %.

# input Quick one: residual activity for `Ic1cccc(CSc2nnc(-c3ccncc3)o2)c1` ?
# output 98.6

# input Please answer likewise for `CS(=O)(=O)CCNCc1ccc(-c2ccc3ncnc(Nc4ccc(OCc5cccc(F)c5)c(Cl)c4)c3c2)o1`
# output 95.6

# input Please answer likewise for `CN(C)CCCn1cc(C2=C(c3c[nH]c4ccccc34)C(=O)NC2=O)c2ccccc21`
# output 93.5

# input Please answer likewise for `N#Cc1c[nH]c2c[nH]/c(=N\Cc3cccnc3)cc2/c1=N\c1ccc(F)c(Cl)c1`
# output 98.6

# input Please answer likewise for `O=C(c1cc2cc(O)ccc2[nH]1)c1cc2cc(O)ccc2[nH]1`
# output 98.2

# input Please answer likewise for `COc1ccc2c(c1)/C(=C/c1cnc[nH]1)C(O)=N2`
# output 100

# input Please answer likewise for `CC(C)(C)c1cc(C=C(C#N)C#N)cc(Br)c1O`
# output 108

# input Please answer likewise for `c1ccc2c(-c3ccncc3)c[nH]c2c1`
# output 100
